Ref: patent US9796711B2

# test-system: ΔF508-CFTR (Homo sapiens, UniProt P13569, DEL508-508)
# Construct: host or cells: CFBE41o-, doxycycline-inducible
# Sequence (P13569 with tags, fused parts or gaps DEL508-508): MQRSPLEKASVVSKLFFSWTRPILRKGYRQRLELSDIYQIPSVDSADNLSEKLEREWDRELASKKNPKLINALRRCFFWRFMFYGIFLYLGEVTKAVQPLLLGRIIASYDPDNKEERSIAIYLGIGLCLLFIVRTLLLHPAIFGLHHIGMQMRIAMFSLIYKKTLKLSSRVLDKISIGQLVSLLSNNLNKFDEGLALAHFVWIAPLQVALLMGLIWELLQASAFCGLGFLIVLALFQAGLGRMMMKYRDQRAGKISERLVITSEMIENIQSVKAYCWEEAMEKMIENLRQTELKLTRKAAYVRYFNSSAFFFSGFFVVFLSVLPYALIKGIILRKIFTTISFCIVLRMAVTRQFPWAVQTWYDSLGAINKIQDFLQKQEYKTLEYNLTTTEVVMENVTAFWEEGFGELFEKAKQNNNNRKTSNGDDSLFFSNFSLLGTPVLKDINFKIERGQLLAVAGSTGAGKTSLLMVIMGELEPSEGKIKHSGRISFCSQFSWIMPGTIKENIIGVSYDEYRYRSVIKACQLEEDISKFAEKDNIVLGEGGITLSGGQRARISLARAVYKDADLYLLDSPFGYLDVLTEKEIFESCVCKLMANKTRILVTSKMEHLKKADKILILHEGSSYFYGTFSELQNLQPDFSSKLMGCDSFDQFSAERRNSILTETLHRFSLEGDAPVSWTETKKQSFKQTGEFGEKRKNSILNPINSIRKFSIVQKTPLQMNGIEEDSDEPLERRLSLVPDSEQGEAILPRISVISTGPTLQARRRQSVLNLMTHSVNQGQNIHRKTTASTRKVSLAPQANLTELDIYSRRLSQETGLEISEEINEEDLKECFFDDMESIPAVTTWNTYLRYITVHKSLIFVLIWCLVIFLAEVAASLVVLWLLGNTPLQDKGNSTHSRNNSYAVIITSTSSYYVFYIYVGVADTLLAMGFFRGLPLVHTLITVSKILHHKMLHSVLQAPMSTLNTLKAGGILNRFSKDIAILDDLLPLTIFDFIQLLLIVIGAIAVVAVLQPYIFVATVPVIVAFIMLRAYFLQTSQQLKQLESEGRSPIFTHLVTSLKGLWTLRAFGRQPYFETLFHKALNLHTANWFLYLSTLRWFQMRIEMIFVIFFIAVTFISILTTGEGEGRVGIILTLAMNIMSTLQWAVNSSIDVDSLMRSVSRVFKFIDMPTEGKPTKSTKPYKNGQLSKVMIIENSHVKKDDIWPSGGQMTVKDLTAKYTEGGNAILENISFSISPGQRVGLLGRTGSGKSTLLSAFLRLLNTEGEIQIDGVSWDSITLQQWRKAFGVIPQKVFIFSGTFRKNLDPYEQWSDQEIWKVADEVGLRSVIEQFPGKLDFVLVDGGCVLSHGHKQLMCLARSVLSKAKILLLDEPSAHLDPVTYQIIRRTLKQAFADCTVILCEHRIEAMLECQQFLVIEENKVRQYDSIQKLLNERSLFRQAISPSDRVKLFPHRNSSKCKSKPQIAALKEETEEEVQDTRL
# assay-remarks: CFTR cell surface levels using HRP-tagged ΔF508-CFTR expressing CFBE cells, intrinsic corrector capacity
# Assay type: cell-based
# settings: HRP-tagged ΔF508-CFTR CFBE41o- cells, compounds alone (intrinsic corrector capacity), 20 hours at 33° C.; positive control 3 μM corrector

molecule: Cc1nn(-c2ccccc2)c2nc(C(=O)O)cc(C3=CCOCC3)c12
unit: %
% Activation: 33.92
//
molecule: Cc1nn(C)cc1-c1cc(C(=O)O)nc2c1c(C(C)C)nn2C1CCCCC1
unit: %
% Activation: 55.175
//
molecule: CC(C)c1nn(C2CCCCC2)c2nc(C(=O)O)cc(-c3ccc(N(C)C4CCOC4)nc3)c12 (stereo not drawn)
unit: %
% Activation: 206.93
//
molecule: Cc1nn(-c2cccc(C(F)(F)F)c2)c2nc(C(=O)O)cc(-c3ccc(N4CCOCC4)nc3)c12
unit: %
% Activation: 153
//
molecule: CC(C)c1nn(C2CCCCC2)c2nc(C(=O)O)cc(N3CCCCC3)c12
unit: %
% Activation: 132.05
//
molecule: Cc1nn(-c2ccccc2)c2nc(C(=O)O)cc(O[C@H]3C[C@@H](N4CCS(=O)(=O)CC4)C3)c12
unit: %
% Activation: 27.26
//
molecule: CC(C)c1nn(-c2cccc(C(F)(F)F)c2)c2nc(C(=O)O)cc(-c3ccc(N4CCC(C#N)CC4)nc3)c12
unit: %
% Activation: 326.4
//
molecule: CC(C)c1nn(-c2ccc(F)cc2)c2nc(C(=O)O)cc(-c3cnc(N(C)C4CCOCC4)nc3)c12
unit: %
% Activation: 238.6
//
molecule: CC(C)c1nn(-c2cccc(N3CCCC3)c2)c2nc(C(=O)O)cc(-c3ccc(N4CCC(C#N)CC4)nc3)c12
unit: %
% Activation: 429.93
//
molecule: CC(C)c1nn(C2CCCCC2)c2nc(C(=O)O)cc(-c3ccc(N4CCOC(C)(C)C4)nc3)c12
unit: %
% Activation: 219.25
//
molecule: CC(C)c1nn(C2CCCCC2)c2nc(C(=O)O)cc(-c3ccc(N4CCC(C)(C#N)CC4)nc3)c12
unit: %
% Activation: 162.5
//
molecule: Cc1cccc(-n2nc(C(C)C)c3c(N4CCC(F)(F)CC4)cc(C(=O)O)nc32)c1
unit: %
% Activation: 66.65
//
molecule: COC(=O)N1CC(c2nn(-c3ccccc3)c3nc(C(=O)O)cc(-c4ccc(N5CCOCC5)cc4)c23)C1
unit: %
% Activation: 129.75
//
molecule: CC(C)c1nn(C2CCCCC2)c2nc(C(=O)O)cc(-c3cnc(N(C)C)nc3)c12
unit: %
% Activation: 159.65
//
molecule: CC(C)c1nn([C@@H]2CCC[C@H](O)C2)c2nc(C(=O)O)cc(-c3ccc(N4CCOCC4)cc3)c12 (racemic)
unit: %
% Activation: 27.46

---

# test-system: ΔF508-CFTR (Homo sapiens, UniProt P13569, DEL508-508)
# Construct: host or cells: CFBE41o-, doxycycline-inducible
# assay-remarks: CFTR cell surface levels using HRP-tagged ΔF508-CFTR expressing CFBE cells, in the presence of a co-corrector
# Type: cell-based
# settings: HRP-tagged ΔF508-CFTR expressing CFBE cells, in the presence of 3 μM co-corrector
Each entry below carries its recorded % Activation.
recorded-metric: % Activation (%)

compound: Cc1nn(-c2ccccc2)c2nc(C(=O)O)cc(C3=CCOCC3)c12
recorded-metric: % Activation
measured: 175.85
--
compound: CC(C)c1nn(-c2ccc(F)cc2)c2nc(C(=O)O)cc(N3CCC(C(C)(C)O)CC3)c12
recorded-metric: % Activation
measured: 415.7
--
compound: CC(C)c1nn(-c2cccc(F)c2)c2nc(C(=O)O)cc(-c3ccc(N4CCC(C#N)CC4)cc3)c12
recorded-metric: % Activation
measured: 448.23
--
compound: CC(C)Oc1nn(C2CCCCC2)c2nc(C(=O)O)cc(-c3ccc(C#N)cc3)c12
recorded-metric: % Activation
measured: 263
--
compound: O=C(O)c1cc(OC2CCOCC2)c2c(C3CCC3)nn(-c3ccccc3)c2n1
recorded-metric: % Activation
measured: 263.5
--
compound: CC(C)c1nn(C2CCCCC2)c2nc(C(=O)O)cc(-c3ccc(N(C)C4CCOC4)nc3)c12 (stereo not shown)
recorded-metric: % Activation
measured: 407.8
--
compound: CC(C)c1nn(-c2cccc(N3CC(F)C3)c2)c2nc(C(=O)O)cc(-c3ccc(N4CCOCC4)cc3)c12
recorded-metric: % Activation
measured: 568.2
--
compound: COCCOCC1(F)CCCN(c2cc(C(=O)O)nc3c2c(C2CCC2)nn3-c2ccccc2)C1 (stereo not shown)
recorded-metric: % Activation
measured: 316.85
--
compound: Cc1cccc(-n2nc(C(C)C)c3c(N4CCC(S(C)(=O)=O)CC4)cc(C(=O)O)nc32)c1
recorded-metric: % Activation
measured: 440.2
--
compound: CC(C)N1CCN(c2ccc(-c3cc(C(=O)O)nc4c3c(C3CCC3)nn4C3CCCCC3)cn2)CC1
recorded-metric: % Activation
measured: 306.8
--
compound: CC(C)c1nn(C2CCCCC2)c2nc(C(=O)O)cc(-c3ccc(N4CCC(F)(F)C4)nc3)c12
recorded-metric: % Activation
measured: 397.95
--
compound: CC(C)c1nn(-c2cccc(N3CCC3)c2)c2nc(C(=O)O)cc(-c3ccc(N(C)C4CCOCC4)cc3)c12
recorded-metric: % Activation
measured: 609.05
--
compound: O=C(O)c1cc(N2CCC(N3CCOCC3)CC2)c2c(C3CCC3)nn(-c3ccnc(OC(F)F)c3)c2n1
recorded-metric: % Activation
measured: 449.8
--
compound: CC(C)c1nn(-c2ccc(F)cc2)c2nc(C(=O)O)cc(N3CCN4CCC[C@@H]4C3)c12
recorded-metric: % Activation
measured: 234.5
--
compound: CC(C)c1nn(-c2ccc(F)cc2)c2nc(C(=O)O)cc(N3CCC(N4CCOCC4)CC3)c12
recorded-metric: % Activation
measured: 446
--
compound: CC(C)c1nn(-c2ccc(F)c(F)c2)c2nc(C(=O)O)cc(-c3ccc(N4CCOCC4)cc3)c12
recorded-metric: % Activation
measured: 402.73
--
compound: CC(C)c1nn(-c2cccc(N3CCCC3)c2)c2nc(C(=O)O)cc(-c3ccc(N4CCOCC4)cc3)c12
recorded-metric: % Activation
measured: 621
--
compound: O=C(O)c1cc(CN2CCOCC2)c2c(C3CCC3)nn(-c3ccc(F)cc3)c2n1
recorded-metric: % Activation
measured: 232.2
--
compound: Cc1cc(N2CCN(c3cc(C(=O)O)nc4c3c(C3CCC3)nn4C3CCCCC3)CC2)ccn1
recorded-metric: % Activation
measured: 458.6
--
compound: CCN(CC)CCCC1CCN(c2cc(C(=O)O)nc3c2c(C2CCC2)nn3-c2ccccc2)CC1
recorded-metric: % Activation
measured: 399.5
--
compound: COCCC1(COc2cc(C(=O)O)nc3c2c(C)nn3-c2ccccc2)CC1
recorded-metric: % Activation
measured: 171.6
--
compound: Cc1cccc(-n2nc(C(C)C)c3c(N4CC5CN(C(=O)OC(C)(C)C)CC5C4)cc(C(=O)O)nc32)c1 (stereo not shown)
recorded-metric: % Activation
measured: 431.7
--
compound: CCOCCN1CCC(N2CCN(c3cc(C(=O)O)nc4c3c(C(C)C)nn4-c3ccc(F)cc3)CC2)CC1
recorded-metric: % Activation
measured: 303
--
compound: COCCN(C)c1ccc(-c2cc(C(=O)O)nc3c2c(C(C)C)nn3-c2cccc(N3CCOCC3)c2)cn1
recorded-metric: % Activation
measured: 548
--
compound: COCC1CN(c2cc(C(=O)O)nc3c2c(C2CCC2)nn3-c2ccccc2)C1
recorded-metric: % Activation
measured: 342.25
--
compound: O=C(O)c1cc(N2CCC[C@@H](CO)C2)c2c(C3CCC3)nn(-c3ccccc3)c2n1
recorded-metric: % Activation
measured: 273
--
compound: CN(C)CC(C)(C)COc1cc(C(=O)O)nc2c1c(C1CCC1)nn2-c1ccccc1
recorded-metric: % Activation
measured: 391.3
--
compound: COC1CCN(c2cc(C(=O)O)nc3c2c(C(C)C)nn3-c2cccc(N(C)C)c2)CC1
recorded-metric: % Activation
measured: 509.93
--
compound: COc1cc(C(=O)O)nc2c1c(C1CCC1)nn2-c1ccccc1
recorded-metric: % Activation
measured: 202.2
--
compound: COCC1CCN(c2cc(C(=O)O)nc3c2c(C(C)C)nn3-c2ccc(F)cc2)CC1
recorded-metric: % Activation
measured: 528.7
--
compound: O=C(O)c1cc(N2CC(N3CCC(N4CCOCC4)CC3)C2)c2c(C3CCC3)nn(-c3ccccc3)c2n1
recorded-metric: % Activation
measured: 173.2
